Hey, just so you know, these numbers are from patent US20250340623A1.

Experimental System: alpha-synuclein fibrils, P37840
Experimental Protocol: SPR, captured mAb
Measurement Parameters: remark: other sources report otherwise
Parameter kon: see the listing below.
Field format: number, assumed M⁻¹ s⁻¹, no unit text.

// below: answered binders
ACI-7088-4303A1-Ab1 (antibody, V domains shown) VH: EVQLQQSGAELVRPGASVKLSCTASGFNIKDDYMHWVKQRPEQGLEWIGWIDPENGDSEYASKFQGKATMTADTSSNTAYLQLSSLTSEDTAVYYCKTWGTAQALFPYWGQGTLVTVSA VL: DIVMTQSQKFMSTSVGDRVSITCKASQNVGTSVGWYQQKAGQSPKLLIHSASNRYTGVPDRFTGSGSGTDFTLTINNMQSEDLADYFCQQYRSYPLTFGAGTKLELK : 18100
ACI-8033-1G10-Ab1 (antibody, V domains shown) VH: DVQLQESGPGLVKPSQTVFLTCTVTGISITTGNYRWSWIRQFPGNKLEWIGYIYYSGTITYNPSLTSRTTITRDTPKNQFFLEMNSLTAEDTATYYCARIYYGNAMDYWGQGTSVTVSS VL: DVVMTQTPLSLPVSLGDQASISCRSSQSLVHSNGNTYLHWYLQKPGQSPKLLIYKVSNRFSGVPDRFSGSGSGTDFTLKISRVEAEDLGVYFCSQSTHVPHTFGGGTKLEIK : 17700
ACI-7079-2501G2-Ab2 (antibody, V domains shown) VH: EVQLVESGGGLVQPKGSLKLSCAASGFNFNTYAMNWVRQAPGKGLEWVARIRTKSNNFATYYAHSVKDRFTISRDDSESMLYLQMNNLKTEDTAMYYCVRQGLAYYAMDYWGQGTSVTVSS VL: DVLMTQTPLSLPVSLGDQVSISCRSSQTIVHSNGNTYLEWYLQKPGQSPKLLIYKVSNRFSGVPDRFSGSGSGTDFTLKISRVEAEDLGVYYCFQGSQGPLTFGAGTKLELK : 19000
ACI-7067-1113D10-Ab1 (antibody, V domains shown) VH: EVQLVESGGGLVQPKGSLKLSCAASGFTFNTYALHWVRQAPGKGLEWVARIRSKSSNYATYYADSVKDRFTISRDDSQSMLYLQMNNLKTEDTGMYYCVRGGVSPFDYWGQGTTLTVSS VL: QIVLTQSPAIMSASPGEKVTMTCSASSSVSYMHWYQQKSGTSPKRWIYDTSKLASGVPARFSGSGSGTSYSLTISSMEAEDSATYYCQQWSNNPPTFGGGTKLEIK : 6940
ACI-8033-19A2-Ab1 (antibody, V domains shown) VH: EVQLVESGGGLVQPKGSLKLSCAASGFSFNTYAMNWVRQAPGKGLEWVARIRSKSNNYATYYVDSVKDRFTISRDDSESMLYLQMNNLKTEDTALYYCVSESAYWGQGTLVTVSA VL: DVVMTQTPLSLPVSLGDQASISCRSSQSLVHSNGNTYLYWYLQKPGQSPKLLIYKVSNRLSGVPDRFSGSGSGTDFTLKISRVEAEDLGVYFCSQSTHVPFTFGSGTKLEIK : 17700
ACI-7088-4303A3-Ab1 (antibody, V domains shown) VH: QVQLQQSGAELVRPGASVTLSCKASGYTFTDYEMHWVKQTPVHGLEWIGVIDPETGGAVQNQKFKGKAILTADNSSSTAYMDLRSLTSEDSAVYNCAMGAALRLAYWGQGTLVTVSS VL: DVLMTQTPLSLPVSLGDQASISCRSSQSIVHSNGNSYLEWYLQKPGQSPKLLIYKVSNRFSGVPDRFSGSGSGTDFTLKINRVEAEDLGVYYCFQGSHVPFTFGSGTKLEIK : 64700
ACI-7067-1111B12-Ab2 (antibody, V domains shown) VH: QVQLLQPGTALVMPGASVKLSCKASGYTFTTYWMHWVKQRPGQGLEWIGNINPINGGSNYNEKFKSKASLTVDKSSSTAYMQLSSLTSEDSAVYYCVIAMDYWGQGTSVTVSS VL: DIQMTQSPSSLSASLGERVSLTCRASQDIGISLNWFQQEPDGTIKRLIYATSSLDSGVPKRFSGNRSGSDYSLTISSLESEDFADYYCLQFASSPLTFGAGTKLELK : 26300
ACI-7079-2603F3-Ab1 (antibody, V domains shown) VH: EVQLVESGGGLVQPKGSLKLSCAASGFTFNTYAMHWVRQAPGKGLEWVARIRSKGSNYATYYADSVKDRFTISRDDSQSMLYLQMNNLKTEDTAMYYCVRGGGDSWFAYWGQGTLVTVSA VL: QIVLTQSPAIMSASPGERVTMTCTASSSVSYMHWYQQKSGTSPKRWIYDTSKLASGVPARFSGSGSGASYTLTISSMEAEDAATYYCQQWNSNPPTFGGGTQLAIK : 7310

Tell me the measured kon of ACI-7079-2501D10-Ab1 (antibody, V domains shown) VH: EVQLVESGGGLVQPKGSLKVSCAASGFTFKTYAMHWVRQAPGKGLEWVARIRSENSNFAKYYADSVKDRFTISRDDSQSMLYLQMNNLKTEDTAMYYCVRGYNGSSLDYWGQGTTLTVSS VL: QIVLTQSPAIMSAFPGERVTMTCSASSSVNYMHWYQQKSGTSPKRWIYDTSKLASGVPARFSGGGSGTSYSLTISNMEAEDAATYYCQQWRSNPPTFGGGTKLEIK , please.
17300

Look at this binder and give its reported kon. ACI-7067-1112H8-Ab2 (antibody, V domains shown) VH: EVKLEESGGGLVQPGGSMKLSCAASGFTFTDAWMNWVRQSPEKGLEWIAEIRNKAHNYATYYAESVKGRFDISGDDSKSSVYLQMNNLRVEDTGIYYCTIYSYWGPGTLVTVSA VL: SIVMTQTPKFLLMSPGDRVTMTCTASQSVSNYVAWYQQKPGQSPKLLIYSASNRFTGVPDRFTGSGYGTDFTFTINTVQTEDMAVYFCQQDYTSPYTFGGGTKLEIK
285000

What measured kon goes with ACI-7079-2501B11-Ab3 (antibody, V domains shown) VH: QVQLQQSGPELVKPGASVKISCKASGYAFSSFWMNWMKQRPGKGLEWIGRIYPGDGDAHYNGEFKGRATLTADKSSSTAYMQLSSLTSEDSAVYFCARKGDFYGSNYDYWGQGTTLTVSS VL: QAVVTQESALTTSPGETVTLTCRSSTGAVTTSNYANWVQEKPDHLFTGLIGGTNNRAPGVPARFSGSLIGDKAALTITGAQTEDEAIYFCALWYSNHLVFGGGTRLTVL ?
10900
